Molecular target: PI3Kβ (p110β/p85α)(h) (Homo sapiens, UniProt P42338)
Sequence (P42338 whole entry): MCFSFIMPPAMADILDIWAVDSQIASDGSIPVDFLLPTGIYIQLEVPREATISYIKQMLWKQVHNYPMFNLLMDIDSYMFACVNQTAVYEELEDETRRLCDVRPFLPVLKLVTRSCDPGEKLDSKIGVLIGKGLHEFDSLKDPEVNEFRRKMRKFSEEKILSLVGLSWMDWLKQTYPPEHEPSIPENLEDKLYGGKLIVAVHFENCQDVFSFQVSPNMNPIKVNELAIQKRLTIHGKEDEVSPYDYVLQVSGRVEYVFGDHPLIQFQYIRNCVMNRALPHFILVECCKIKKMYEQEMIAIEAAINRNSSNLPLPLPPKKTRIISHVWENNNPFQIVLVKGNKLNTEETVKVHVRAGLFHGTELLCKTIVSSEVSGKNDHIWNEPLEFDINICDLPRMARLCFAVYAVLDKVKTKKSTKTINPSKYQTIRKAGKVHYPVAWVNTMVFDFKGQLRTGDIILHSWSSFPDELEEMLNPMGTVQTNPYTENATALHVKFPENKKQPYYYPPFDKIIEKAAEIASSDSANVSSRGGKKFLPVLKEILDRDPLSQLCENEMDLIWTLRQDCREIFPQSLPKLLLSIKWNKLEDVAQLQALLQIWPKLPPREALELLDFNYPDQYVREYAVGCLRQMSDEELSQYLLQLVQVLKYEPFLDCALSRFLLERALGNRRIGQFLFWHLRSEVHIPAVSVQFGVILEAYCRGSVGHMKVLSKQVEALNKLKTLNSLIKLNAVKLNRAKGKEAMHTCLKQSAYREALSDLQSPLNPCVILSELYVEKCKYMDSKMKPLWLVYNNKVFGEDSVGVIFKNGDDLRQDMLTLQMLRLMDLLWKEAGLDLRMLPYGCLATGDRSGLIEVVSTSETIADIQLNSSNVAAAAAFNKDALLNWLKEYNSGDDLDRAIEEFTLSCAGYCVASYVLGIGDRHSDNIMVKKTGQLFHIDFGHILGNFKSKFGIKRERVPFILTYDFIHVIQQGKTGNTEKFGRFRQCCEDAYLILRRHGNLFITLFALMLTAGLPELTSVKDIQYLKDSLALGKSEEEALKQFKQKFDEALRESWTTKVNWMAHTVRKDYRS
Sequence (P27986 whole entry partner): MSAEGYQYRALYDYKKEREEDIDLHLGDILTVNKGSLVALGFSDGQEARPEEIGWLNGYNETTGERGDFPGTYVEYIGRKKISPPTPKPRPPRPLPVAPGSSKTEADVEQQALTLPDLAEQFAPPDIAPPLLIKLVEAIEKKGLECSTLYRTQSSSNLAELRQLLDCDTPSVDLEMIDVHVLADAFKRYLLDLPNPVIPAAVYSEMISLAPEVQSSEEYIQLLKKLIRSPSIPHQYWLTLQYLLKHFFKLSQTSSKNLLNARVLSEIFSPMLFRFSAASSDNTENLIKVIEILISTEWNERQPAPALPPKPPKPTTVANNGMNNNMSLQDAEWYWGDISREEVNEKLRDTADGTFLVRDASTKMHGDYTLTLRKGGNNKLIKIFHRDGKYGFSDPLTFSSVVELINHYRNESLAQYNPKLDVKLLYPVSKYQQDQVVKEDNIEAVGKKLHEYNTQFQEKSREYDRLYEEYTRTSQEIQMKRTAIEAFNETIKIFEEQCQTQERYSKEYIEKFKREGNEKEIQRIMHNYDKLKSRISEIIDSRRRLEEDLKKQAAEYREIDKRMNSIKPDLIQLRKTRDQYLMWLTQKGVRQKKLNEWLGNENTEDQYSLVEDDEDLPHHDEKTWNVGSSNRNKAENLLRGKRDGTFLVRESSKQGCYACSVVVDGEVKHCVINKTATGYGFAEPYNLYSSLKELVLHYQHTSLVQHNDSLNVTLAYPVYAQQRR
Assay: PI3K-HTRF in vitro enzyme assay, PI3Kβ
Conditions: enzyme 0.4 μg/ml
Binarize IC50 at 5 µM; below is Criterion met, at or above is Criterion not met.

# smiles_code, target, group_label
records = [
    ("Nc1ncc(-c2cccc3nc([C@@H](Nc4ncnc5cccc(F)c45)C4CC4)n(-c4ccccc4)c(=O)c23)cn1", "PI3Kβ (p110β/p85α)(h) (Homo sapiens, UniProt P42338)", "Criterion not met"),
    ("CCOc1ncc(-c2cccc3cc([C@H](CC)Nc4ncnc5ccc(C#N)cc45)n(-c4ccccc4)c(=O)c23)cn1", "PI3Kβ (p110β/p85α)(h) (Homo sapiens, UniProt P42338)", "Criterion not met"),
    ("CC[C@H](Nc1ncnc2ccc(C#N)cc12)c1nc2cccc(-c3cncnc3)c2c(=O)n1C1CC1", "PI3Kβ (p110β/p85α)(h) (Homo sapiens, UniProt P42338)", "Criterion not met"),
    ("Cc1ncc(-c2cccc3cc([C@H](C)Nc4ncnc5ccc(C#N)cc45)n(-c4ccc(F)cc4)c(=O)c23)cn1", "PI3Kβ (p110β/p85α)(h) (Homo sapiens, UniProt P42338)", "Criterion not met"),
    ("C[C@H](Nc1ncnc2ccc(C#N)cc12)c1cc2cccc(-c3cncnc3)c2c(=O)n1-c1ccccc1", "PI3Kβ (p110β/p85α)(h) (Homo sapiens, UniProt P42338)", "Criterion met"),
    ("CCC[C@H](Nc1ncnc2ccc(C#N)cc12)c1nc2cccc(-c3cnc(N)nc3)c2c(=O)n1-c1ccccc1", "PI3Kβ (p110β/p85α)(h) (Homo sapiens, UniProt P42338)", "Criterion met"),
    ("CCOc1ncc(-c2cccc3cc([C@H](C)Nc4ncnc5ccc(C#N)cc45)n(-c4ccccc4)c(=O)c23)cn1", "PI3Kβ (p110β/p85α)(h) (Homo sapiens, UniProt P42338)", "Criterion not met"),
    ("COc1ncc(-c2cccc3nc([C@H](C)Nc4ncnc5ccc(C#N)cc45)n(C4CC4)c(=O)c23)cn1", "PI3Kβ (p110β/p85α)(h) (Homo sapiens, UniProt P42338)", "Criterion not met"),
    ("C[C@H](Nc1ncnc2ccc(C#N)cc12)c1nc2cccc(-c3cncnc3)c2c(=O)n1C1CC1", "PI3Kβ (p110β/p85α)(h) (Homo sapiens, UniProt P42338)", "Criterion met"),
    ("C[C@H](Nc1ncnc2ccc(C#N)cc12)c1cc2cccc(-c3cnc(N(C)C)nc3)c2c(=O)n1-c1ccccc1", "PI3Kβ (p110β/p85α)(h) (Homo sapiens, UniProt P42338)", "Criterion not met"),
    ("CCOc1ncc(-c2cccc3nc([C@H](C)Nc4ncnc5ccc(C#N)cc45)n(C4CC4)c(=O)c23)cn1", "PI3Kβ (p110β/p85α)(h) (Homo sapiens, UniProt P42338)", "Criterion not met"),
    ("CC[C@H](Nc1ncnc2ccc(C#N)cc12)c1nc2cccc(-c3cnc(N)nc3)c2c(=O)n1C1CC1", "PI3Kβ (p110β/p85α)(h) (Homo sapiens, UniProt P42338)", "Criterion met"),
    ("CCC[C@H](Nc1ncnc2ccc(C#N)cc12)c1nc2cccc(-c3cnc(OCC)nc3)c2c(=O)n1-c1ccccc1", "PI3Kβ (p110β/p85α)(h) (Homo sapiens, UniProt P42338)", "Criterion not met"),
]
